test: Ex vivo biodistribution in Daudi xenograft-bearing mice; details: male, NOD.Cg-Rag1tm1Mom Il2rgtm1Wjl/SzJ (NRG), mouse, lung, iv, total radioactivity, Lung uptake, 2 h p.i., mean
Where a SMILES comes first, the peptide text is derived from it. Side-chain parts run from the residue outwards. [ ]: non-standard residue; d: D form. The star is where a group is joined. DOTA = O=C(O)CN1CCN(CC(=O)O)CCN(CC(=O)*)CCN(CC(=O)O)CC1; 2Nal = N[C@@H](Cc1ccc2ccccc2c1)C(=O)O; dNMeOrn = CN[C@H](CCCN)C(=O)O; 4Amb = NCc1ccc(C(=O)O)cc1
Reported Property: tissue uptake at 2 h (%ID/g)

compound="CN1C(=O)[C@@H](Cc2ccc(O)cc2)NC(=O)CNC(=O)[C@H](Cc2ccc3ccccc3c2)NC(=O)[C@H](CCCNC(=N)N)NC(=O)[C@H]1CCCNC(=O)c1ccc(CNC(=O)CN2CCN(CC(=O)O)CCN(CC(=O)O)CCN(CC(=O)O)CC2)cc1 [[68Ga]Ga-Pentixafor, metal not drawn] (cyclo([dY][dNMeOrn]([4Amb-DOTA])R[2Nal]G))" reported_property="tissue uptake at 2 h" measured_result=0.54

====

assay: Ex vivo biodistribution in Daudi xenograft-bearing mice; settings: male, NOD.Cg-Rag1tm1Mom Il2rgtm1Wjl/SzJ (NRG), mouse, heart, iv, total radioactivity, Heart uptake, 1 h p.i. blocked with LY2510924, mean
Where a SMILES comes first, the peptide text is derived from it. Side-chain parts run from the residue outwards. [ ]: non-standard residue; d: D form. The star is where a group is joined. DOTA = O=C(O)CN1CCN(CC(=O)O)CCN(CC(=O)*)CCN(CC(=O)O)CC1; 2Nal = N[C@@H](Cc1ccc2ccccc2c1)C(=O)O; dNMeOrn = CN[C@H](CCCN)C(=O)O; 4Amb = NCc1ccc(C(=O)O)cc1
Reported Property: tissue uptake at 1 h (%ID/g)

compound="CN1C(=O)[C@@H](Cc2ccc(O)cc2)NC(=O)CNC(=O)[C@H](Cc2ccc3ccccc3c2)NC(=O)[C@H](CCCNC(=N)N)NC(=O)[C@H]1CCCNC(=O)c1ccc(CNC(=O)CN2CCN(CC(=O)O)CCN(CC(=O)O)CCN(CC(=O)O)CC2)cc1 [[68Ga]Ga-Pentixafor, metal not drawn] (cyclo([dY][dNMeOrn]([4Amb-DOTA])R[2Nal]G))" readout_unit=%ID/g measured_result=0.47

====

test: Ex vivo biodistribution in Daudi xenograft-bearing mice; details: male, NOD.Cg-Rag1tm1Mom Il2rgtm1Wjl/SzJ (NRG), mouse, spleen, iv, total radioactivity, Spleen uptake, 2 h p.i., mean
Where a SMILES comes first, the peptide text is derived from it. Side-chain parts run from the residue outwards. [ ]: non-standard residue; d: D form. The star is where a group is joined. DOTA = O=C(O)CN1CCN(CC(=O)O)CCN(CC(=O)*)CCN(CC(=O)O)CC1; 2Nal = N[C@@H](Cc1ccc2ccccc2c1)C(=O)O; dNMeOrn = CN[C@H](CCCN)C(=O)O; 4Amb = NCc1ccc(C(=O)O)cc1
Reported Property: tissue uptake at 2 h (%ID/g)

compound="CN1C(=O)[C@@H](Cc2ccc(O)cc2)NC(=O)CNC(=O)[C@H](Cc2ccc3ccccc3c2)NC(=O)[C@H](CCCNC(=N)N)NC(=O)[C@H]1CCCNC(=O)c1ccc(CNC(=O)CN2CCN(CC(=O)O)CCN(CC(=O)O)CCN(CC(=O)O)CC2)cc1 [[68Ga]Ga-Pentixafor, metal not drawn] (cyclo([dY][dNMeOrn]([4Amb-DOTA])R[2Nal]G))" reported_property="tissue uptake at 2 h" readout_unit=%ID/g measured_result=0.33
